Task for the reader: assign each of the following compounds its reported IC50.
test system: normal human neonatal foreskin epidermal keratinocytes (NHEK-F); assay: Cell proliferation inhibition test; type: cell-based; conditions: Keratinocyte, 72 h, NHEK-F cells, three days incubation, ATPlite or CellTiterGlo, read-out: IC50 (concentration of the compound at which the cell count is reduced by 50%)

Lookup: Look up and report measured IC50 (normal human neonatal foreskin epidermal keratinocytes (NHEK-F)) for the following compound: Cn1cc(-c2ccccc2F)c2cc(Nc3ncc(C4CC4)cc3C(=O)O)ccc21 [Example 557]
Found: 10 to 100 nM

Lookup: State the measured IC50 (normal human neonatal foreskin epidermal keratinocytes (NHEK-F)) of Cn1ccc2cc(Nc3ncc(C4CC4)cc3C(=O)O)cc(-c3cccc(-c4ccccc4)c3)c21 [Example 189]
Found: ≤ 10 nM

Lookup: # assay system normal human neonatal foreskin epidermal keratinocytes (NHEK-F): give IC50 of COCCNc1cccc(Cn2ccc3cc(Nc4ncc(C5CC5)cc4C(=O)O)ccc32)c1 [Example 510]
Found: ≤ 10 nM

Lookup: GET IC50 where system = normal human neonatal foreskin epidermal keratinocytes (NHEK-F) and item = O=C(O)c1cc(C2CC2)cnc1Nc1cccc2c(-c3ccccc3)nccc12 [Example 185]
Found: ≤ 10 nM

Lookup: # return IC50 for O=C(O)c1cc(Cl)ccc1Nc1ccc2c(cnn2Cc2ccccc2)c1 [Example 21] , test system: normal human neonatal foreskin epidermal keratinocytes (NHEK-F)
Found: ≤ 10 nM

Lookup: Given O=C(O)c1cc(C2CC2)cnc1Nc1ccc2c(c1)CCCN2c1ccccc1 [Example 181] , report its IC50 on normal human neonatal foreskin epidermal keratinocytes (NHEK-F).
Found: ≤ 10 nM

Lookup: For normal human neonatal foreskin epidermal keratinocytes (NHEK-F), give the measured IC50 of the entry O=C(O)c1cc(C2CC2)cnc1Nc1cccc2c1ccn2CC1CCCCO1 (centres unmarked) [Example 423]
Found: 10 to 100 nM

Lookup: Provide IC50, tested on normal human neonatal foreskin epidermal keratinocytes (NHEK-F), for CC(C)n1ccc2ccc(Nc3ncc(C4CC4)cc3C(=O)O)cc21 [Example 519] .
Found: 10 to 100 nM

Lookup: Give IC50 for O=C(O)c1cc(C2CC2)ccc1Nc1ccc2[nH]cc(-c3ccccc3)c2c1 [Example 377] tested on normal human neonatal foreskin epidermal keratinocytes (NHEK-F).
Found: 10 to 100 nM

Lookup: Answer briefly: IC50 recorded on normal human neonatal foreskin epidermal keratinocytes (NHEK-F) for O=C(O)c1cc(C2CC2)cnc1Nc1cccc2c1ccn2CC1CCCC1 [Example 537]
Found: ≤ 10 nM

Lookup: Look up and report IC50, with normal human neonatal foreskin epidermal keratinocytes (NHEK-F) as system, for O=C(O)c1cc(C2CC2)cnc1Nc1ccc2c(ccn2Cc2cccc(OC(F)(F)F)c2)c1 [Example 496]
Found: 10 to 100 nM

Lookup: State IC50 (normal human neonatal foreskin epidermal keratinocytes (NHEK-F)) of O=C(O)c1cc(C2CC2)cnc1Nc1cnc2c(ccn2Cc2ccccc2)c1 [Example 545] .
Found: ≤ 10 nM

Lookup: System normal human neonatal foreskin epidermal keratinocytes (NHEK-F). Read-out IC50. Item CCn1c(-c2ccccc2)cc2cc(Nc3ncc(C4CC4)cc3C(=O)O)ccc21 [Example 142] . Report value.
Found: 10 to 100 nM

Lookup: # assay system normal human neonatal foreskin epidermal keratinocytes (NHEK-F): give IC50 of O=C(O)c1cc(Cl)ccc1Nc1ccc2c(ccn2Cc2cccc(OC(F)(F)F)c2)c1 [Example 363]
Found: ≤ 10 nM

Lookup: Lab note: normal human neonatal foreskin epidermal keratinocytes (NHEK-F) assay, enter IC50 for O=C(O)c1cc(C2CC2)ccc1Nc1ccc2c(c1)CC(=O)N2CC1CC1 [Example 108] here
Found: 10 to 100 nM

Lookup: Give IC50 for this entry on normal human neonatal foreskin epidermal keratinocytes (NHEK-F): O=C(O)c1cc(C2CC2)ccc1Nc1ccc2c(c1)n(CC(F)(F)F)c(=O)n2-c1ccccc1 [Example 80]
Found: 10 to 100 nM

Lookup: Give measured IC50 for O=C(O)c1cc(Cl)cnc1Nc1ccc2c(cnn2Cc2ccccc2)c1 [Example 354] (normal human neonatal foreskin epidermal keratinocytes (NHEK-F)).
Found: 10 to 100 nM

Lookup: // fetch IC50; item: COc1cnc(Nc2ccc3c(ccn3Cc3ccccc3)c2)c(C(=O)O)c1 [Example 132] ; system: normal human neonatal foreskin epidermal keratinocytes (NHEK-F)
Found: 10 to 100 nM

Lookup: Fill in: IC50 on normal human neonatal foreskin epidermal keratinocytes (NHEK-F), entry CCCCCn1ccc2cc(Nc3ncc(C4CC4)cc3C(=O)O)ccc21 [Example 638]
Found: 10 to 100 nM

Lookup: Write IC50 of O=C(O)c1cc(C2CC2)cnc1Nc1ccc2c(ccn2Cc2ccccc2)c1 [Example 37] ; system used: normal human neonatal foreskin epidermal keratinocytes (NHEK-F)
Found: ≤ 10 nM

Lookup: # return IC50 of O=C(O)c1cc(C2CC2)ccc1Nc1ccc2c(ccn2-c2ccccc2)c1 [Example 59] (system: normal human neonatal foreskin epidermal keratinocytes (NHEK-F))
Found: ≤ 10 nM

Lookup: Tell me its IC50 on normal human neonatal foreskin epidermal keratinocytes (NHEK-F): Cc1cc2cc(Nc3ncc(C4CC4)cc3C(=O)O)ccc2n1C [Example 391]
Found: 100 to 1000 nM

Lookup: Please tell me the measured IC50 for O=C(O)c1cc(Cl)ccc1Nc1ccc2c(ccn2Cc2cscn2)c1 [Example 302] ; system: normal human neonatal foreskin epidermal keratinocytes (NHEK-F).
Found: 10 to 100 nM

Lookup: // output IC50; input O=C(O)c1cc(C2CC2)cnc1Nc1ccc2c(ccn2Cc2cccc(Cl)c2)c1 [Example 460] ; system normal human neonatal foreskin epidermal keratinocytes (NHEK-F)
Found: ≤ 10 nM

Lookup: State, for normal human neonatal foreskin epidermal keratinocytes (NHEK-F), measured IC50 of the compound listed here: O=C(O)c1cc(C2CC2)cnc1Nc1cccc2c(-c3ccccc3)ccnc12 [Example 187]
Found: ≤ 10 nM

Lookup: Output reported IC50 of the compound CCc1cnc(Nc2ccc3c(ccn3Cc3ccccc3)c2)c(C(=O)O)c1 [Example 381] on normal human neonatal foreskin epidermal keratinocytes (NHEK-F).
Found: 10 to 100 nM

Lookup: # return IC50 for CC(C)(C)c1cc2cc(Nc3ccc(C4CC4)cc3C(=O)O)ccc2[nH]1 [Example 110] , test system: normal human neonatal foreskin epidermal keratinocytes (NHEK-F)
Found: 10 to 100 nM

Lookup: GET IC50 | system: normal human neonatal foreskin epidermal keratinocytes (NHEK-F) | item: Cn1ccc2cc(Nc3ncc(C4CC4)cc3C(=O)O)cc(C3=CCCCC3)c21 [Example 504]
Found: ≤ 10 nM

Lookup: Give IC50 for Cn1cc(-c2ccccc2)c2cc(Nc3ncc(C4CC4)cc3C(=O)O)ccc21 [Example 153] tested on normal human neonatal foreskin epidermal keratinocytes (NHEK-F).
Found: 10 to 100 nM

Lookup: System normal human neonatal foreskin epidermal keratinocytes (NHEK-F). Read-out IC50. Item Cc1ccc(-c2cc(Nc3ncc(C4CC4)cc3C(=O)O)cc3ccn(C)c23)cc1 [Example 478] . Report value.
Found: ≤ 10 nM

Lookup: Report value: IC50, system: normal human neonatal foreskin epidermal keratinocytes (NHEK-F), compound: O=C(O)c1cc(Cl)ccc1Nc1ccc2c(ccn2Cc2cccc(N3CCOCC3)c2)c1 [Example 14]
Found: ≤ 10 nM

Lookup: State IC50 on normal human neonatal foreskin epidermal keratinocytes (NHEK-F). Entry: O=C(O)c1cc(C2CC2)cnc1Nc1cccc2c(=O)n(-c3ccccc3)cnc12 [Example 369]
Found: 100 to 1000 nM

Lookup: Give normal human neonatal foreskin epidermal keratinocytes (NHEK-F) IC50 for the following compound: Cc1ccc(Nc2ccc3c(ccn3Cc3ccccc3)c2)c(C(=O)O)c1 [Example 206]
Found: ≤ 10 nM

Lookup: Determine reported IC50 for O=C(O)c1cc(C2CC2)ccc1Nc1ccc2c(ccn2Cc2ccccc2)c1 [Example 94] ; test system: normal human neonatal foreskin epidermal keratinocytes (NHEK-F).
Found: ≤ 10 nM

Lookup: Determine reported IC50 for O=C(O)c1cc(C2CC2)cnc1Nc1cc(-c2ccccc2)c2[nH]ccc2c1 [Example 227] ; test system: normal human neonatal foreskin epidermal keratinocytes (NHEK-F).
Found: 10 to 100 nM
